# TEST DESCRIPTION: Antagonistic activity against melatonin of Xenopus melanophores
MEASUREMENT LABEL: IC50 (nM)

CC(=O)NCCc1c2n(c3ccccc13)CCc1ccccc1-2 | 8910

I = COc1ccc2c(c1)c(CCNC(=O)C1CC1)c1n2CCCc2ccccc2-1
II = CCCC(=O)NCCc1c2n(c3ccccc13)CCCc1ccccc1-2
III = CCCC(=O)NCCc1c2n(c3ccc(OCC)cc13)CCCc1ccccc1-2
IV = O=C(NCCc1c2n(c3ccccc13)CCc1ccccc1-2)C1CCC1
Arrange the 4 compounds from largest to smallest IC50. Returns: the labels listed in the requested order.
IV, II, I, III
(IV: 3720 nM, II: 1860 nM, I: 550 nM, III: 380 nM)

I = CCCC(=O)NCCc1c2n(c3ccccc13)CCc1ccccc1-2
II = CCC(=O)NCCc1c2n(c3ccccc13)CCc1ccccc1-2
Pick one: I or II . Which has the bigger IC50 number? Kindly state the label of the option you pick.
II
(II: 2290 nM, I: 447 nM)
